Each recorded value in this set is attributed to patent US6605145B1.

experiment: Foam test based upon ASTM D 1173-53; assay type: physicochemical; details: 0.1 wt % solution
reported endpoint: Initial Foam Height (cm)

[P] CCCCCCCCNC=O [drawing 13, n-octylformamide]
[Q] CCCCCCCCN1CCCC1=O [N-n-Octylpyrrolidone, reference compound]
Q: Could you check which of P and Q has a smaller value for Initial Foam Height? // return label of chosen record
Result: P
(P: 0.9 cm, Q: 4.0 cm)

[P] CCCCC(CC)CNC=O (stereo not shown) [drawing 14, 2-ethylhexylformamide]
[Q] CCCCCCCCCCNC=O [drawing 16, n-decylformamide]
Q: Could you check which of P and Q has a smaller value for Initial Foam Height? // return label of chosen record
Result: P
(P: 0.5 cm, Q: 2.4 cm)

* * *

assay: Solubility limit in water from plot of ln(conc.) vs surface tension at 0.1 b/s; format: physicochemical
reported endpoint: solubility limit (wt %)

molecule="CCCCCCCCCCNC=O [n-DF, n-decylformamide]" observed=0.01

[1] CCCCCCCCNC=O [n-OF, n-octylformamide]
[2] CCCCCCNC=O [n-HF, n-hexylformamide]
[3] CCCCC(CC)CNC=O (stereo not shown) [2-EHF, 2-ethylhexylformamide]
Q: # sort list by recorded solubility limit, greatest to least Submit the labels in the order that the ranking request calls for.
Result: 2, 3, 1
